tested_system: VEGF (R&D systems, Minneapolis, Minn.) (UniProt P15692-4 27-191, limits assumed)
Sequence (P15692 other isoform, or with tags, fused parts or gaps limits assumed): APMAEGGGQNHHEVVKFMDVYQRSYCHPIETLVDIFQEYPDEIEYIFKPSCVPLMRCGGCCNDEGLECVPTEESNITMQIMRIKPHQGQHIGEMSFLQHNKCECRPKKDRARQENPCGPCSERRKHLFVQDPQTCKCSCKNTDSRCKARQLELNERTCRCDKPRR
assay_procedure: BIAcore SPR, improvement over WT
Listed here: items and their measured ΔKD.
property: ΔKD (fold)

1. 93 (antibody, human IgG1, V domains shown) VH: EVQLVESGGGLVQPGGSLRLSCAASGYTFTNYGMNWVRQAPGKGLEWVGWINTYTGEPTYAADFKRRFTFSLDTSKSTAYLQMNSLRAEDTAVYYCAKYPEYYGSSHWYFDVWGQGTLVTVSS VL: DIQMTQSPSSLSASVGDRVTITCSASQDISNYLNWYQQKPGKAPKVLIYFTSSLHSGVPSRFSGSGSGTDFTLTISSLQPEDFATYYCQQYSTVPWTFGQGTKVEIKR    2.6
2. 86 (seventh row of Table 7) (antibody, human IgG1, V domains shown, defined here by its substitutions; copies: 2 + 2) VH: EVQLVESGGGLVQPGGSLRLSCAASGYTFTFYGMNWVRQAPGKGLEWVGWINTYTGEPTYAADFKRRFTFSLDTSKSTAYLQMNSLRAEDTAVYYCAKYPHYDGGSHWYFDVWGQGTLVTVSS VL: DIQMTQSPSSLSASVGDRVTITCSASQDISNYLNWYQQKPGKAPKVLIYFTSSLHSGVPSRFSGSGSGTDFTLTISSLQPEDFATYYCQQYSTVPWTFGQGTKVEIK    7
3. 94 (antibody, human IgG1, V domains shown) VH: EVQLVESGGGLVQPGGSLRLSCAASGYTFTFYGMNWVRQAPGKGLEWVGWINTYTGEPTYAADFKRRFTFSLDTSKSTAYLQMNSLRAEDTAVYYCAKYPHYYGGSHWYFDVWGQGTLVTVSS VL: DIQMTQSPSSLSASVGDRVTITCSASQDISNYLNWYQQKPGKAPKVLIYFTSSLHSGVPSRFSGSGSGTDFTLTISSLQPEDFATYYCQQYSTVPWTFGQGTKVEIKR    2.3
